organism: Rattus norvegicus; test: DrugMatrix - Regimen: Daily Repeat; format: toxicity, organism-based, Sprague-Dawley; parameters: regimen Daily Repeat, gender Male, age 6-8 weeks; settings: in vivo, po, 0 mg/kg, 72 h, tissue Plasma, route oral GAVAGE, dose level Control, time 3 day, vehicle .5 % CMC
Examples of compounds with documented ALKALINE PHOSPHATASE follow.

COMPOUND	ALKALINE PHOSPHATASE
Nc1cccc(Cl)c1	426.33 u/L
C[C@@H](O)[C@H]1C(=O)N2C(C(=O)O)=C(S[C@@H]3CN[C@H](C(=O)N(C)C)C3)[C@H](C)[C@H]12	398.83 u/L
CC[C@]1(O)CC[C@H]2[C@@H]3CCC4=CCCC[C@@H]4[C@H]3CC[C@@]21C	328.5 u/L
Clc1cc2c(cc1Cl)Oc1cc(Cl)c(Cl)cc1O2	404.5 u/L
CCCCC1C(=O)N(c2ccccc2)N(c2ccccc2)C1=O	391 u/L
Cc1cnc(C(=O)NCCc2ccc(S(=O)(=O)NC(=O)NC3CCCCC3)cc2)cn1 [GLIPIZIDE]	449.5 u/L
O=c1cc(-c2ccccc2)oc2ccc3ccccc3c12	404.5 u/L
CN1C(=O)CN=C(c2ccccc2)c2cc(Cl)ccc21	378.5 u/L
COc1ccc(/C=C/C(=O)Nc2ccccc2C(=O)O)cc1OC	398.83 u/L

----------
species on record: Rattus norvegicus; assay: DrugMatrix - Regimen: Daily Repeat; format: toxicity, organism-based, Sprague-Dawley; parameters: regimen Daily Repeat, gender Male, age 6-8 weeks; conditions: in vivo, po, 0 mg/kg, 72 h, tissue Blood, route oral GAVAGE, dose level Control, time 3 day, vehicle .5 % CMC

COMPOUND	UNIT_OF_MEASURE	HEMATOCRIT
C[C@@H]1CC[C@H]2[C@@H](C)C(=O)O[C@@H]3O[C@@]4(C)CC[C@@H]1[C@]32OO4	%	34.75
C[C@]12C/C(=C/O)C(=O)C[C@@H]1CC[C@@H]1[C@@H]2CC[C@@]2(C)[C@H]1CC[C@]2(C)O	%	45.44
CC(=O)O[C@]1(C(C)=O)CC[C@H]2[C@@H]3C=C(Cl)C4=CC(=O)[C@@H]5C[C@@H]5[C@]4(C)[C@H]3CC[C@@]21C [CYPROTERONE ACETATE]	%	35.45
CN1C(=O)CN=C(c2ccccc2)c2cc(Cl)ccc21	%	36.57
CCCCC1C(=O)N(c2ccccc2)N(c2ccccc2)C1=O	%	33.58
COc1ccccc1OCC(O)COC(N)=O (stereo not drawn)	%	34.75
COc1ccc(/C=C/C(=O)Nc2ccccc2C(=O)O)cc1OC	%	36.52
CO[C@H]1C[C@@H]2CC[C@@H](C)[C@@](O)(O2)C(=O)C(=O)N2CCCC[C@H]2C(=O)O[C@H]([C@H](C)C[C@@H]2CC[C@@H](O)[C@H](OC)C2)CC(=O)[C@H](C)/C=C(\C)[C@@H](O)[C@@H](OC)C(=O)[C@H](C)C[C@H](C)/C=C/C=C/C=C/1C	%	34.43

----------
Examples of molecules with documented LIPASE follow.
species: Rattus norvegicus; experiment: DrugMatrix - Regimen: Daily Repeat; type: toxicity, organism-based, Sprague-Dawley; set-up: regimen Daily Repeat, gender Male, age 6-8 weeks; settings: in vivo, po, 0 mg/kg, 72 h, tissue Plasma, route oral GAVAGE, dose level Control, time 3 day, vehicle 100 % WATER
MEASURE: LIPASE (u/L)

QUERY_SMILES	MEASURE	OBSERVED_MEASUREMENT
CCCCCCCCCCCCCCCC[n+]1ccccc1.[Br-]	LIPASE	11.17
O=C(O)c1cccnc1	LIPASE	16.17
CCOC(N)=O	LIPASE	9.67
CNS(=O)(=O)Cc1ccc2[nH]cc(CCN(C)C)c2c1	LIPASE	9.5
CC[C@H]1OC(=O)[C@H](C)[C@@H](O[C@H]2C[C@@](C)(OC)[C@@H](O)[C@H](C)O2)[C@H](C)[C@@H](O[C@@H]2O[C@H](C)C[C@H](N(C)C)[C@H]2O)[C@](C)(OC)C[C@@H](C)C(=O)[C@H](C)[C@@H](O)[C@]1(C)O	LIPASE	24.17
